Assay: Pharmacokinetic study
Type: in vivo
Conditions: BALB/c nude, mouse, plasma, ip; 200 mg/kg intraperitoneally, single dose, HeLa xenograft nude mice
readout_type: half-life
Please answer in the form of a number followed by its unit of measurement.

Requested read-out: half-life. Entry: Cc1ccc(-n2nnnc2/C(=C/N(C)C)C(=O)c2cccc(C(F)(F)F)c2)cc1 [YL001]
5.3 h

====

Tested on: 786-O
Test: Antiproliferation assay (Alamar Blue), 786-O
Format: cell-based
Details: Homo sapiens, 786-0, renal cancer, read-out: EC50 of YL001
readout_type: EC50 (µM)
Kindly provide the numeric value in µM only, without the unit symbol.

Requested read-out: EC50. Entry: `Cc1ccc(-n2nnnc2/C(=C/N(C)C)C(=O)c2cccc(C(F)(F)F)c2)cc1`
14.7

====

System: human cancer cell lines
Test: Antiproliferation screening of 23 selected compounds (Alamar Blue)
Format: cell-based
Conditions: proliferation inhibition
Threshold check on Inhibition (50 μM): at or above 30% gives T, strictly below gives F.

Take a look at these entries with their results.
INSERT INTO assay_data (molecule, label_class) VALUES
  ('Cc1ccc(N2C(=N)/C(=C(/O)c3ccccc3)C(c3ccc([N+](=O)[O-])cc3)C3=C2CCCC3=O)cc1Cl (stereo not shown)', 'F'),
  ('CC(=O)C1=NN(c2ccc(C)cc2)C(c2c[nH]c3ccccc23)N1c1ccc(C)cc1 (stereo not shown)', 'T'),
  ('NC1=C(C(=O)OCc2ccccc2)C2(C(=O)Nc3ccc(Br)cc32)C2=C(CCCC2=O)O1 (stereo not shown)', 'T');

Reported Inhibition (50 μM) at or above 30%? COC(=O)C1NC(c2ccc(F)cc2)(c2ccc(F)cc2)C2C(=O)N(c3ccc(Cl)cc3)C(=O)C12 (stereo not shown)
T

====

Test system: Huh7
Test: Antiproliferation assay (Alamar Blue), Huh7
Assay type: cell-based
Conditions: Homo sapiens, Huh-7; Huh7, liver cancer; read-out: EC50 of YL001
readout_type: EC50
Please answer in the form of a number followed by its unit of measurement.

Requested read-out: EC50. Entry: `Cc1ccc(-n2nnnc2/C(=C/N(C)C)C(=O)c2cccc(C(F)(F)F)c2)cc1`
14.6 µM

====

Test system: A2780/taxol
Assay: Antiproliferation assay (Alamar Blue), A2780/taxol
Format: cell-based
Details: Homo sapiens, taxol resistant ovarian cancer, read-out: EC50 of YL001
readout_type: EC50 (µM)
Kindly provide the numeric value in µM only, without the unit symbol.

Requested read-out: EC50. Entry: `Cc1ccc(-n2nnnc2/C(=C/N(C)C)C(=O)c2cccc(C(F)(F)F)c2)cc1`
20.1

====

Biological target: Eg5 motor domain (Homo sapiens)
Sequence (P52732 18-359 limits assumed): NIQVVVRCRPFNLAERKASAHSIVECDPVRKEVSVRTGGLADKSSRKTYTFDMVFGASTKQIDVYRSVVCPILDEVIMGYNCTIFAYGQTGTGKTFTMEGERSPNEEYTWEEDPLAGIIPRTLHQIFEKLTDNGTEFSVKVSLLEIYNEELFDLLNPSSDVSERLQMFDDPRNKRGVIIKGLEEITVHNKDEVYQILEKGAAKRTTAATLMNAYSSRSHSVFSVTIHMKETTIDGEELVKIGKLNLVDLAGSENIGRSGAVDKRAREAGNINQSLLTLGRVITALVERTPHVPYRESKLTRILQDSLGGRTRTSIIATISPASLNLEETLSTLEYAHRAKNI
Experiment: SPR assay (Biacore T200)
Assay type: binding
Settings: SPR screening
Known Binding Level (RU) of a selection of compounds
Kindly provide the numeric value in RU only, without the unit symbol.

Example compounds with recorded Binding Level (RU):
INSERT INTO results (compound, readout_type, measured_value) VALUES
  ('Cc1ccc(N2C(=O)CSC23C(=O)N(CN2CCN(c4ccccc4)CC2)c2ccccc23)cc1C (stereo not shown)', 'Binding Level (RU)', 44.5),
  ('Cc1ccc(SC(c2ccccc2)C(Cn2cncn2)C(=O)c2ccc(Br)cc2)cc1 (stereo not shown)', 'Binding Level (RU)', 2.3),
  ('Cc1ccc(N=C2S/C(=C/c3ccccc3OCC(=O)N3CCOCC3)C(=O)N2Cc2ccccc2)cc1', 'Binding Level (RU)', 56.4);

What is its Binding Level (RU) for Eg5 motor domain (Homo sapiens)? Entry: Cc1ccc(/C(O)=C2\C(=N)N(c3ccccc3)C3=C(C(=O)CCC3)C2c2ccccc2)cc1 (stereo not shown)
56.6

And COC(=O)CN1C(c2ccccc2)=Nc2ccc(Br)cc2C1c1ccccc1 (stereo not shown) ?
61.1

And COC(=O)C1NC(c2ccc(F)cc2)(c2ccc(F)cc2)C2C(=O)N(c3ccc(Cl)cc3)C(=O)C12 (stereo not shown) ?
31.9

And `Cc1ccc(-n2nnnc2/C(=C/N(C)C)C(=O)c2cccc(C(F)(F)F)c2)cc1` ?
18.8

Numbers sourced from paper PMC5522084.
